- Tested on: SK-LU-1
- protocol_notes: Anticancer activity against human SKLU1 cells after 48 hrs by SRB assay
- Type: functional, cell-based
recorded_endpoint: IC50

molecule	experimental_target	observed_result
NCCNC(=O)CCN(CCNC(=O)COc1cc(OCC(=O)NCCN(CCC(=O)NCCN)CCC(=O)NCCN)c2cc1C(CCc1ccccc1)c1cc(c(OCC(=O)NCCN(CCC(=O)NCCN)CCC(=O)NCCN)cc1OCC(=O)NCCN(CCC(=O)NCCN)CCC(=O)NCCN)C(CCc1ccccc1)c1cc(c(OCC(=O)NCCN(CCC(=O)NCCN)CCC(=O)NCCN)cc1OCC(=O)NCCN(CCC(=O)NCCN)CCC(=O)NCCN)C(CCc1ccccc1)c1cc(c(OCC(=O)NCCN(CCC(=O)NCCN)CCC(=O)NCCN)cc1OCC(=O)NCCN(CCC(=O)NCCN)CCC(=O)NCCN)C2CCc1ccccc1)CCC(=O)NCCN (centres undefined)	SK-LU-1	Active
COC(=O)CN1C(=O)CN=C(c2ccccc2)c2cc(Cl)ccc21	SK-LU-1	Active
COC(=O)CN1C(=O)CN=C(c2ccccc2Cl)c2cc(Cl)ccc21	SK-LU-1	Active
CCCCCCCCCCCC1c2cc(c(OCC(=O)NCCN)cc2OCC(=O)NCCN)C(CCCCCCCCCCC)c2cc(c(OCC(=O)NCCN)cc2OCC(=O)NCCN)C(CCCCCCCCCCC)c2cc(c(OCC(=O)NCCN)cc2OCC(=O)NCCN)C(CCCCCCCCCCC)c2cc1c(OCC(=O)NCCN)cc2OCC(=O)NCCN (centres undefined)	SK-LU-1	Active
